// provenance: the NIST ThermoML archive (doi:10.1021/je050402s)

assay: xn = mol fraction of the nth substance listed; conditions: 298.15 K; 100.5 kPa; Liquid; Capillary tube (Ostwald / Ubbelohde) method; x1 = 0.25
Each entry below carries its recorded viscosity.
Quantity Kind: viscosity (mPa·s)

>  <Compound>
CCOC(=O)CC(C)C [ethyl 3-methylbutanoate] + CCO

>  <Quantity Kind>
viscosity

>  <Reported Result>
0.815

$$$$
>  <Compound>
CCC(=O)OCc1ccccc1 [benzyl propanoate] + CCO

>  <Quantity Kind>
viscosity

>  <Reported Result>
1.253

$$$$
>  <Compound>
COC(=O)c1ccccc1 [methyl benzoate] + CCO

>  <Quantity Kind>
viscosity

>  <Reported Result>
1.144

$$$$
>  <Compound>
CCOC(=O)CC(C)=O [ethyl 3-oxobutanoate] + CCO

>  <Quantity Kind>
viscosity

>  <Reported Result>
1.003

$$$$
>  <Compound>
CC(=O)OCc1ccccc1 [benzyl ethanoate] + CCO

>  <Quantity Kind>
viscosity

>  <Reported Result>
1.191

$$$$

----------
experiment: xn = mol fraction of the nth substance listed; conditions: 288.15 K; 100.5 kPa; Liquid; x1 = 0.45
Returns: string. Value is yes if measured mass density is below 900 kg/m3, and no if it is greater than or equal to it.

>  <Molecule>
CCOC(=O)CC(C)=O [ethyl 3-oxobutanoate] + CCO

>  <Label Class>
no

$$$$
>  <Molecule>
CC(=O)OCc1ccccc1 [benzyl ethanoate] + CCO

>  <Label Class>
no

$$$$
>  <Molecule>
COC(=O)c1ccccc1 [methyl benzoate] + CCO

>  <Label Class>
no

$$$$
>  <Molecule>
CCOC(=O)CC(C)C [ethyl 3-methylbutanoate] + CCO

>  <Label Class>
yes

$$$$
>  <Molecule>
CCC(=O)OCc1ccccc1 [benzyl propanoate] + CCO

>  <Label Class>
no

$$$$
>  <Molecule>
CCOC(=O)c1ccccc1O [ethyl 2-hydroxybenzoate] + CCO

>  <Label Class>
no

$$$$

----------
viscosity values by entry
assay: xn = mol fraction of the nth substance listed; conditions: 298.15 K; 100.5 kPa; Liquid; Capillary tube (Ostwald / Ubbelohde) method; x1 = 0.15
Quantity Kind: viscosity (mPa·s)

>  <Compound>
CC(=O)OCc1ccccc1 [benzyl ethanoate] + CCO

>  <Quantity Kind>
viscosity

>  <Unit Text>
mPa·s

>  <Reported Result>
1.123

$$$$
>  <Compound>
CCC(=O)OCc1ccccc1 [benzyl propanoate] + CCO

>  <Quantity Kind>
viscosity

>  <Unit Text>
mPa·s

>  <Reported Result>
1.173

$$$$
>  <Compound>
COC(=O)c1ccccc1 [methyl benzoate] + CCO

>  <Quantity Kind>
viscosity

>  <Unit Text>
mPa·s

>  <Reported Result>
1.107

$$$$
>  <Compound>
CCOC(=O)CC(C)=O [ethyl 3-oxobutanoate] + CCO

>  <Quantity Kind>
viscosity

>  <Unit Text>
mPa·s

>  <Reported Result>
0.99

$$$$
>  <Compound>
CCOC(=O)CC(C)C [ethyl 3-methylbutanoate] + CCO

>  <Quantity Kind>
viscosity

>  <Unit Text>
mPa·s

>  <Reported Result>
0.891

$$$$

----------
assay: xn = mol fraction of the nth substance listed; conditions: 318.15 K; 100.5 kPa; Liquid; Capillary tube (Ostwald / Ubbelohde) method; x1 = 0.8
Response field label: string, one of MET (viscosity strictly below 1 mPa·s) or NOT MET.

>  <Compound>
CC(=O)OCc1ccccc1 [benzyl ethanoate] + CCO

>  <Label Class>
NOT MET

$$$$
>  <Compound>
CCOC(=O)CC(C)C [ethyl 3-methylbutanoate] + CCO

>  <Label Class>
MET

$$$$
>  <Compound>
CCC(=O)OCc1ccccc1 [benzyl propanoate] + CCO

>  <Label Class>
NOT MET

$$$$
>  <Compound>
COC(=O)c1ccccc1 [methyl benzoate] + CCO

>  <Label Class>
NOT MET

$$$$
